Data origin: patent US20250368745A1

target-desc: T1, human IL-18BP (interleukin-18 binding protein, isoform A) (human, UniProt O95998 31-194)
T1 sequence: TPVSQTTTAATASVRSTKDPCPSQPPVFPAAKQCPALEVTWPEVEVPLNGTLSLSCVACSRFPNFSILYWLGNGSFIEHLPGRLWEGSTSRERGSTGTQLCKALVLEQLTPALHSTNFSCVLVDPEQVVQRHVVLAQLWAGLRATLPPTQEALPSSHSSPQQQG
assay-remarks: cell-based or functional assay
Parameter EC50 (nM), KG-1 Assay (IFNγ): see the listing below.

# binder, EC50 (nM), KG-1 Assay (IFNγ)
data = [
    ("SA33a (antibody, human IgG1, V domains shown, murine variable regions on human IgG1 kappa constant regions) VH: QVQLQQSGAELVRPGVSVKISCKGSGYTFTDYAMHWVKQSHAKSLEWIGVISTYYGDASYNQKFKGKATMTVDKSSSTAYMELARLTSEDSAIYYCARERDYYGSRLFDYWGQGTTLTVSS VL: EIVLTQSPTTMAASPGEKITITCSANSSISSNYLHWYQQKPGFSPKLLIYGTSNLASGVPARFSGSGSGTSYSLTIGTMEAEDVATYYCQQGSSIPYTFGGGTKLEIK", "129 nM"),
    ("SA31a (antibody, human IgG1, V domains shown, murine variable regions on human IgG1 kappa constant regions) VH: QVQLQQPGSELVRPGASVKLSCKASGYTFTSYWMHWVKQRPGQGLEWIGNIYPGSGNTIYDEKFKSKATLTVDTSSSTAYMQLSSLTSEDSAVYYCTRWDNWEGYYFDYWGQGTTLTVSS VL: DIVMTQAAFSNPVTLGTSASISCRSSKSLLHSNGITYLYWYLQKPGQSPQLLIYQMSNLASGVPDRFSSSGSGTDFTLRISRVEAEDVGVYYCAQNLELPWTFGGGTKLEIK", "185 nM"),
    ("SA32a (antibody, human IgG1, V domains shown, murine variable regions on human IgG1 kappa constant regions) VH: EVQLQQSGPELVKTGASVKISCKASGYSFTGYYMHWVKQSHGKSLEWIGYISCYNGATSYNQKFKGKATFTVDTSSSTAYMQFNSLTSEDSAVYYCAITLHYAMDYWGQGTSVAS VL: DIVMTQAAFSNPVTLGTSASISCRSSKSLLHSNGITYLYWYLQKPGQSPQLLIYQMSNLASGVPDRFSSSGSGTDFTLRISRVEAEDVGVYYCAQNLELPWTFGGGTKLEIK", "109 nM"),
]
